target_or_test_system: Human sputum neutrophil elastase (Homo sapiens)
Sequence (P08246 30-247 limits assumed): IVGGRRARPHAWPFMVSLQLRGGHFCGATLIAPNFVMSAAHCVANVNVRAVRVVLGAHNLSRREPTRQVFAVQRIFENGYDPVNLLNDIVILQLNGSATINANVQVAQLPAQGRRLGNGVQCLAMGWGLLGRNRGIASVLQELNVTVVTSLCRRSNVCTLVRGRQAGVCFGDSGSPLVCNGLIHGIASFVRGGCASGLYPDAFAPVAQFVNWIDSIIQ
assay_method_text: Inhibitor IC50 against human neutrophil elastase (fluorogenic MeOSuc-AAPV-AMC substrate)
applied_conditions: 20 min preincubation, read-out: HNE IC50
Method: Determination of Inhibitor IC50 Values Against Human Neutrophil Elastase Human sputum neutrophil elastase (Elastin Products Co.) was diluted into Assay Buffer A (200 mM Tris pH 7.4, 1 mg/ml BSA) to a working concentration of 0.55 U/ml. […] DMSO alone was used as the negative control. […] Fluorescence intensity versus inhibitor concentration was plotted and fit to the Hill equation to quantify IC50 values.
measured_endpoint: IC50

Below, 5 molecules whose answers are already recorded.
1) COCCN1CCN(c2ncccc2-c2nc3cc(OC)cc(C4CC4)c3c(=O)o2)CC1 [Compound 167] ... 61 to 150 nM
2) C=CCN1CCN(c2ncccc2-c2nc3cc(OC)cc(CC)c3c(=O)o2)CC1 [Compound 193] ... < 15 nM
3) Cc1cccc2nc(-c3cccnc3N3CCN(CC4CC4)CC3)oc(=O)c12 [Compound 54] ... > 150 nM
4) Cc1cccc2nc(-c3ccccn3)oc(=O)c12 [Compound 4] ... > 150 nM
5) COc1cc(C2CCC2)c2c(=O)oc(-c3cccnc3N(C)CCN(C)C)nc2c1 [Compound 188] ... 16 to 60 nM

We next turn to a different molecule, shown below.
Ask | Can you look up the measured IC50 of CSc1ncccc1-c1nc2cccc(Cl)c2c(=O)o1 [Compound 27] for me?
Reply | 61 to 150 nM
